MEASURED ON: T1, human TL1A (Fitzgerald #30R-AT070) (human, UniProt O95150 72-251, limits assumed)
T1 construct: Coated on the ELISA plate at 1 ug/mL; also called TNFSF15
T1 sequence (looked up): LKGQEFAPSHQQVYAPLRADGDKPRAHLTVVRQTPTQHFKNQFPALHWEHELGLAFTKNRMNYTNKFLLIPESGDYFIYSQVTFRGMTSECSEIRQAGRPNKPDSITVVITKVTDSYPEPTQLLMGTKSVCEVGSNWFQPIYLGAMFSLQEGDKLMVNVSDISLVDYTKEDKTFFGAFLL
PROTOCOL NOTES: ELISA titration, coated human TL1A, culture supernatant
pKd values for the binders below.
In plain terms, pKd is the concentration in mol/L turned into minus its base-10 logarithm.

BINDER	pKd
A122 (antibody, human IgG1, V domains shown, human IgG1/kappa (pFuse vectors), culture supernatant) VH: QVQLVQSGAEVKKPGASVKVSCKASGFDIQDTYMHWVRQRPGQGLEWIGRIDPASGHTKYDPKFQVRATITRDTSTSTAYLELSSLRSEDTAVYYCARSGGLPDVWGQGTTVTVSS VL: EIVLTQSPGTLSLSPGERATLSCRASSSVSYMYWYQQKPGQAPRLLIYATSNLASGIPDRFSGSGSGTDFTLTISRLEPEDFAVYYCQQWKGNPRTFGGGTKLEIK	9.95

Now for a further binder.
Exercise: State, in one line, measured pKd of A155 (antibody, human IgG1, V domains shown, human IgG1/kappa (pFuse vectors), culture supernatant) VH: QVQLVQSGAEVKKPGASVKVSCKASGFDIQDTYMHWVRQAPGQGLEWMGRIEPASGHIKYDPKFQVRVTMTRDTSTSTVYMELSSLRSEDTAVYYCARSGGLPDWWGQGTTVTVSS VL: EIVLTQSPGTLSLSPGERATLSCRASSSVSYMYWYQQKPGQAPRPWIYATSNLASGIPDRFSGSGSGTDFTLTISRLEPEDFAVYYCQQWEGNPRTFGGGTKLEIK
Solution: 10.17
